Tested on: PC-3 [JPC-3]
Assay: relative viability (nuclei count vs DMSO), 5 days (fraction); higher = more cells survive
Conditions: first compound 0.253 µM
Label y when relative viability < 0.8; otherwise n.

compound	assigned.category
C=C1C(=O)O[C@@H](CCCCCCCC)[C@@H]1C(=O)O [C-75] + COc1cc2c(Oc3ccc(NC(=O)C4(C(=O)Nc5ccc(F)cc5)CC4)cc3F)ccnc2cc1OCCCN1CCOCC1 [Foretinib] (partner 0.25 µM)	n
C=C1C(=O)O[C@@H](CCCCCCCC)[C@@H]1C(=O)O [C-75] + N=C(N)NC(=N)NCCc1ccccc1 [Phenformin] (partner 250 µM)	y
C=C1C(=O)O[C@@H](CCCCCCCC)[C@@H]1C(=O)O [C-75] + CC(=O)c1c(C)c2cnc(Nc3ccc(N4CCNCC4)cn3)nc2n(C2CCCC2)c1=O [Palbociclib] (partner 0.5 µM)	y
C=C1C(=O)O[C@@H](CCCCCCCC)[C@@H]1C(=O)O [C-75] + O=C(c1cc(Cc2n[nH]c(=O)c3ccccc23)ccc1F)N1CCN(C(=O)C2CC2)CC1 [Olaparib] (partner 8 µM)	n
C=C1C(=O)O[C@@H](CCCCCCCC)[C@@H]1C(=O)O [C-75] + Cc1nc(NC(=O)N2CCC[C@H]2C(N)=O)sc1-c1ccnc(C(C)(C)C(F)(F)F)c1 [Alpelisib] (partner 2 µM)	n
Oc1nc(-c2ccc(C(F)(F)F)cc2)nc2c1CSCC2 [XAV939] + CC1(C)CCC(c2ccc(Cl)cc2)=C(CN2CCN(c3ccc(C(=O)NS(=O)(=O)c4ccc(N[C@H](CCN5CCOCC5)CSc5ccccc5)c(S(=O)(=O)C(F)(F)F)c4)cc3)CC2)C1 [Navitoclax] (partner 0.5 µM)	y
Oc1nc(-c2ccc(C(F)(F)F)cc2)nc2c1CSCC2 [XAV939] + O=C(CCCCCCC(=O)Nc1ccccc1)NO [Vorinostat] (partner 1 µM)	y
Oc1nc(-c2ccc(C(F)(F)F)cc2)nc2c1CSCC2 [XAV939] + COc1cc2c(Oc3ccc(NC(=O)C4(C(=O)Nc5ccc(F)cc5)CC4)cc3F)ccnc2cc1OCCCN1CCOCC1 [Foretinib] (partner 0.25 µM)	n

---

Test system: COR-L 105
Assay: relative viability (nuclei count vs DMSO), 5 days (fraction); higher = more cells survive
Conditions: first compound 1.265 µM

compound	relative viability
O=C(O)c1ccc(-c2c[nH]c3ncc(-c4ccccc4)cc23)cc1C1CCCC1 + CC(=O)c1c(C)c2cnc(Nc3ccc(N4CCNCC4)cn3)nc2n(C2CCCC2)c1=O [Palbociclib] (partner 0.5 µM)	0.411
O=C(O)c1ccc(-c2c[nH]c3ncc(-c4ccccc4)cc23)cc1C1CCCC1 + Cc1nc(NC(=O)N2CCC[C@H]2C(N)=O)sc1-c1ccnc(C(C)(C)C(F)(F)F)c1 [Alpelisib] (partner 2 µM)	0.79
O=C(O)c1ccc(-c2c[nH]c3ncc(-c4ccccc4)cc23)cc1C1CCCC1 + Cc1cc(Nc2cc(N3CCN(C)CC3)nc(Sc3ccc(NC(=O)C4CC4)cc3)n2)n[nH]1 [Tozasertib] (partner 0.1 µM)	0.36
O=C(O)c1ccc(-c2c[nH]c3ncc(-c4ccccc4)cc23)cc1C1CCCC1 + C[C@@H](Oc1cc(-c2cnn(C3CCNCC3)c2)cnc1N)c1c(Cl)ccc(F)c1Cl [Crizotinib] (partner 1 µM)	0.792
O=C(O)c1ccc(-c2c[nH]c3ncc(-c4ccccc4)cc23)cc1C1CCCC1 + O=C(c1cc(Cc2n[nH]c(=O)c3ccccc23)ccc1F)N1CCN(C(=O)C2CC2)CC1 [Olaparib] (partner 8 µM)	0.647

---

Below, each entry is listed alongside its reported relative viability.
Test system: NCI-H441
Assay: relative viability (nuclei count vs DMSO), 5 days (fraction); higher = more cells survive
Details: first compound 1.265 µM

compound	relative viability
O=C(O)c1ccc(-c2c[nH]c3ncc(-c4ccccc4)cc23)cc1C1CCCC1 + COc1cc2c(Oc3ccc(NC(=O)C4(C(=O)Nc5ccc(F)cc5)CC4)cc3F)ccnc2cc1OCCCN1CCOCC1 [Foretinib] (partner 0.25 µM)	0.563
O=C(O)c1ccc(-c2c[nH]c3ncc(-c4ccccc4)cc23)cc1C1CCCC1 + CS(=O)(=O)N1CCN(Cc2cc3nc(-c4cccc5[nH]ncc45)nc(N4CCOCC4)c3s2)CC1 [Pictilisib] (partner 1 µM)	0.338
O=C(O)c1ccc(-c2c[nH]c3ncc(-c4ccccc4)cc23)cc1C1CCCC1 + Cc1nc(NC(=O)N2CCC[C@H]2C(N)=O)sc1-c1ccnc(C(C)(C)C(F)(F)F)c1 [Alpelisib] (partner 2 µM)	0.382
O=C(O)c1ccc(-c2c[nH]c3ncc(-c4ccccc4)cc23)cc1C1CCCC1 + Nc1nc2[nH]cc(CCc3ccc(C(=O)N[C@@H](CCC(=O)O)C(=O)O)cc3)c2c(=O)[nH]1 [Pemetrexed] (partner 0.2 µM)	0.235
O=C(O)c1ccc(-c2c[nH]c3ncc(-c4ccccc4)cc23)cc1C1CCCC1 + COc1cccc2cc(-c3nc([C@H]4CC[C@H](C(=O)O)CC4)n4ncnc(N)c34)[nH]c12 [OSI-027] (partner 0.5 µM)	0.466
O=C(O)c1ccc(-c2c[nH]c3ncc(-c4ccccc4)cc23)cc1C1CCCC1 + CC(C)C[C@H](NC(=O)[C@H](Cc1ccccc1)NC(=O)c1cnccn1)B(O)O [Bortezomib] (partner 0.002 µM)	0.289
O=C(O)c1ccc(-c2c[nH]c3ncc(-c4ccccc4)cc23)cc1C1CCCC1 + CC(=O)c1c(C)c2cnc(Nc3ccc(N4CCNCC4)cn3)nc2n(C2CCCC2)c1=O [Palbociclib] (partner 0.5 µM)	0.22

---

Tested on: NCI-H1437
Experiment: relative viability (nuclei count vs DMSO), 5 days (fraction); higher = more cells survive
Details: first compound 1.265 µM
endpoint.label: relative viability

molecule	system.tested	endpoint.label	measured.result
O=C(O)c1ccc(-c2c[nH]c3ncc(-c4ccccc4)cc23)cc1C1CCCC1 + Cc1cc(Nc2cc(N3CCN(C)CC3)nc(Sc3ccc(NC(=O)C4CC4)cc3)n2)n[nH]1 [Tozasertib] (partner 0.1 µM)	NCI-H1437	relative viability	0.405
O=C(O)c1ccc(-c2c[nH]c3ncc(-c4ccccc4)cc23)cc1C1CCCC1 + CCNC(=O)c1noc(-c2cc(C(C)C)c(O)cc2O)c1-c1ccc(CN2CCOCC2)cc1 [Luminespib] (partner 0.01 µM)	NCI-H1437	relative viability	0.603
O=C(O)c1ccc(-c2c[nH]c3ncc(-c4ccccc4)cc23)cc1C1CCCC1 + CS(=O)(=O)CCNCc1ccc(-c2ccc3ncnc(Nc4ccc(OCc5cccc(F)c5)c(Cl)c4)c3c2)o1 [Lapatinib] (partner 2 µM)	NCI-H1437	relative viability	0.338
O=C(O)c1ccc(-c2c[nH]c3ncc(-c4ccccc4)cc23)cc1C1CCCC1 + N=C(N)NC(=N)NCCc1ccccc1 [Phenformin] (partner 250 µM)	NCI-H1437	relative viability	0.202
O=C(O)c1ccc(-c2c[nH]c3ncc(-c4ccccc4)cc23)cc1C1CCCC1 + Cc1nc(NC(=O)N2CCC[C@H]2C(N)=O)sc1-c1ccnc(C(C)(C)C(F)(F)F)c1 [Alpelisib] (partner 2 µM)	NCI-H1437	relative viability	0.882

---

Tested on: NCI-H1650
Test: relative viability (nuclei count vs DMSO), 5 days (fraction); higher = more cells survive
Details: first compound 0.1581 µM
endpoint.label: relative viability

molecule	system.tested	measured.result
CC1(C)CCC(c2ccc(Cl)cc2)=C(CN2CCN(c3ccc(C(=O)NS(=O)(=O)c4ccc(N[C@H](CCN5CCOCC5)CSc5ccccc5)c(S(=O)(=O)C(F)(F)F)c4)cc3)CC2)C1 [Navitoclax] + COc1cccc2cc(-c3nc([C@H]4CC[C@H](C(=O)O)CC4)n4ncnc(N)c34)[nH]c12 [OSI-027] (partner 0.5 µM)	NCI-H1650	0.526
CC1(C)CCC(c2ccc(Cl)cc2)=C(CN2CCN(c3ccc(C(=O)NS(=O)(=O)c4ccc(N[C@H](CCN5CCOCC5)CSc5ccccc5)c(S(=O)(=O)C(F)(F)F)c4)cc3)CC2)C1 [Navitoclax] + Cc1cc(Nc2cc(N3CCN(C)CC3)nc(Sc3ccc(NC(=O)C4CC4)cc3)n2)n[nH]1 [Tozasertib] (partner 0.1 µM)	NCI-H1650	0.34
CC1(C)CCC(c2ccc(Cl)cc2)=C(CN2CCN(c3ccc(C(=O)NS(=O)(=O)c4ccc(N[C@H](CCN5CCOCC5)CSc5ccccc5)c(S(=O)(=O)C(F)(F)F)c4)cc3)CC2)C1 [Navitoclax] + Nc1nc2[nH]cc(CCc3ccc(C(=O)N[C@@H](CCC(=O)O)C(=O)O)cc3)c2c(=O)[nH]1 [Pemetrexed] (partner 0.2 µM)	NCI-H1650	0.347
CC1(C)CCC(c2ccc(Cl)cc2)=C(CN2CCN(c3ccc(C(=O)NS(=O)(=O)c4ccc(N[C@H](CCN5CCOCC5)CSc5ccccc5)c(S(=O)(=O)C(F)(F)F)c4)cc3)CC2)C1 [Navitoclax] + CCNC(=O)c1noc(-c2cc(C(C)C)c(O)cc2O)c1-c1ccc(CN2CCOCC2)cc1 [Luminespib] (partner 0.01 µM)	NCI-H1650	0.206
